# assayed-target: Substance-P receptor (Homo sapiens)
# run-description: Antagonist activity at human recombinant NK1 receptor expressed in human U20S cells assessed as substance P maximal stimulation at 3 nM by FLIPR assay
# Assay type: functional, cell-based
# condition-notes: U2OS
Parameter Emax: see the listing below.

[
  {
    "molecule": "Cc1cc(F)ccc1-c1cc(C2NC(=O)CC2CO)ncc1N(C)C(=O)C(C)(C)c1cc(C(F)(F)F)cc(C(F)(F)F)c1 (single isomer, unassigned; 9a)",
    "assayed-target": "Substance-P receptor (Homo sapiens)",
    "Emax / %": 60
  },
  {
    "molecule": "Cc1cc(F)ccc1-c1cc(C2NC(=O)CC2CO)ncc1N(C)C(=O)C(C)(C)c1cc(C(F)(F)F)cc(C(F)(F)F)c1 (single isomer, unassigned; 8a)",
    "assayed-target": "Substance-P receptor (Homo sapiens)",
    "Emax / %": 25
  },
  {
    "molecule": "Cc1cc(F)ccc1-c1cc(C2CNC(=O)C2CO)ncc1N(C)C(=O)C(C)(C)c1cc(C(F)(F)F)cc(C(F)(F)F)c1 (racemic)",
    "assayed-target": "Substance-P receptor (Homo sapiens)",
    "Emax / %": 63
  },
  {
    "molecule": "Cc1cc(F)ccc1-c1cc(C2CC(=O)NC2CO)ncc1N(C)C(=O)C(C)(C)c1cc(C(F)(F)F)cc(C(F)(F)F)c1 (single isomer, unassigned; 22a)",
    "assayed-target": "Substance-P receptor (Homo sapiens)",
    "Emax / %": 39
  },
  {
    "molecule": "Cc1cc(F)ccc1-c1cc(C2NC(=O)CC2CO)ncc1N(C)C(=O)C(C)(C)c1cc(C(F)(F)F)cc(C(F)(F)F)c1 (single isomer, unassigned; 9b)",
    "assayed-target": "Substance-P receptor (Homo sapiens)",
    "Emax / %": 30
  },
  {
    "molecule": "Cc1cc(F)ccc1-c1cc(C2CNC(=O)C2)ncc1N(C)C(=O)C(C)(C)c1cc(C(F)(F)F)cc(C(F)(F)F)c1 (stereo unspecified)",
    "assayed-target": "Substance-P receptor (Homo sapiens)",
    "Emax / %": 20
  }
]

* * *

# assayed-target: Substance-P receptor (Homo sapiens, UniProt P25103)
# Sequence (P25103 whole entry): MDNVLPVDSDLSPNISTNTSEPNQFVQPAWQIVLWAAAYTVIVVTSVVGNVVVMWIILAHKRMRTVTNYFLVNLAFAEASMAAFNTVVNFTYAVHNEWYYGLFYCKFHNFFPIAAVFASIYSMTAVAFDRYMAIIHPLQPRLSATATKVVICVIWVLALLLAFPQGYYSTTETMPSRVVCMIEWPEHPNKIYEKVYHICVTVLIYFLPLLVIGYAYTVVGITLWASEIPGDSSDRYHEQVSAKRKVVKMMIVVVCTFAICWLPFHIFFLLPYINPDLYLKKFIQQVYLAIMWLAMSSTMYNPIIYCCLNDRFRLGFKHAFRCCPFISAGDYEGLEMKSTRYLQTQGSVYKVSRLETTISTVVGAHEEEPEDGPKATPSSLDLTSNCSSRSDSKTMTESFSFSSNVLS
# run-description: Antagonist activity at human recombinant NK1 receptor expressed in human U20S cells assessed as effect on substance P-induced intracellular calcium level by FLIPR assay
readout-name: Ki

[
  {
    "compound": "Cc1cc(F)ccc1-c1cc(C2CC(=O)NC2CO)ncc1N(C)C(=O)C(C)(C)c1cc(C(F)(F)F)cc(C(F)(F)F)c1 (single isomer, unassigned; 21a)",
    "result": "< 0.158 nM"
  },
  {
    "compound": "Cc1cc(F)ccc1-c1cc(C2CC(=O)NC2CO)ncc1N(C)C(=O)C(C)(C)c1cc(C(F)(F)F)cc(C(F)(F)F)c1 (single isomer, unassigned; 22b)",
    "result": "0.251 nM"
  },
  {
    "compound": "Cc1cc(F)ccc1-c1cc(C2CNC(=O)C2CO)ncc1N(C)C(=O)C(C)(C)c1cc(C(F)(F)F)cc(C(F)(F)F)c1 (racemic)",
    "result": "0.251 nM"
  },
  {
    "compound": "Cc1cc(F)ccc1-c1cc(C2NC(=O)CC2CO)ncc1N(C)C(=O)C(C)(C)c1cc(C(F)(F)F)cc(C(F)(F)F)c1 (single isomer, unassigned; 9b)",
    "result": "0.316 nM"
  },
  {
    "compound": "Cc1cc(F)ccc1-c1cc(C2CC(=O)NC2CO)ncc1N(C)C(=O)C(C)(C)c1cc(C(F)(F)F)cc(C(F)(F)F)c1 (single isomer, unassigned; 22a)",
    "result": "0.251 nM"
  },
  {
    "compound": "Cc1cc(F)ccc1-c1cc(C2CC(=O)NC2(CO)CO)ncc1N(C)C(=O)C(C)(C)c1cc(C(F)(F)F)cc(C(F)(F)F)c1 (single isomer, unassigned; enantiomer 1)",
    "result": "< 0.158 nM"
  },
  {
    "compound": "Cc1cc(F)ccc1-c1cc(C2CC(=O)NC2(CO)CO)ncc1N(C)C(=O)C(C)(C)c1cc(C(F)(F)F)cc(C(F)(F)F)c1 (single isomer, unassigned; enantiomer 2)",
    "result": "< 0.158 nM"
  }
]

* * *

# assayed-target: Substance-P receptor (Homo sapiens, UniProt P25103)
# run-description: Antagonist activity at human recombinant NK1 receptor expressed in human U20S cells assessed as substance P maximal stimulation at 1 nM by FLIPR assay
# Type: functional, cell-based
# condition-notes: U2OS
We use 80% as the dividing line for Emax: on or above the line is t, below is f.

[
  {
    "compound": "Cc1cc(F)ccc1-c1cc(C2CC(=O)NC2(CO)CO)ncc1N(C)C(=O)C(C)(C)c1cc(C(F)(F)F)cc(C(F)(F)F)c1 (racemic)",
    "label-class": "t"
  },
  {
    "compound": "Cc1cc(F)ccc1-c1cc(C2CNC(=O)C2CO)ncc1N(C)C(=O)C(C)(C)c1cc(C(F)(F)F)cc(C(F)(F)F)c1 (single isomer, unassigned; enantiomer 2)",
    "label-class": "t"
  },
  {
    "compound": "Cc1cc(F)ccc1-c1cc(C2CC(=O)NC2CO)ncc1N(C)C(=O)C(C)(C)c1cc(C(F)(F)F)cc(C(F)(F)F)c1 (single isomer, unassigned; 22a)",
    "label-class": "t"
  },
  {
    "compound": "Cc1cc(F)ccc1-c1cc(C2CNC(=O)C2)ncc1N(C)C(=O)C(C)(C)c1cc(C(F)(F)F)cc(C(F)(F)F)c1 (stereo not given)",
    "label-class": "f"
  }
]

* * *

# assayed-target: Neuromedin-K receptor (Homo sapiens, UniProt P29371)
# Sequence (P29371 whole entry): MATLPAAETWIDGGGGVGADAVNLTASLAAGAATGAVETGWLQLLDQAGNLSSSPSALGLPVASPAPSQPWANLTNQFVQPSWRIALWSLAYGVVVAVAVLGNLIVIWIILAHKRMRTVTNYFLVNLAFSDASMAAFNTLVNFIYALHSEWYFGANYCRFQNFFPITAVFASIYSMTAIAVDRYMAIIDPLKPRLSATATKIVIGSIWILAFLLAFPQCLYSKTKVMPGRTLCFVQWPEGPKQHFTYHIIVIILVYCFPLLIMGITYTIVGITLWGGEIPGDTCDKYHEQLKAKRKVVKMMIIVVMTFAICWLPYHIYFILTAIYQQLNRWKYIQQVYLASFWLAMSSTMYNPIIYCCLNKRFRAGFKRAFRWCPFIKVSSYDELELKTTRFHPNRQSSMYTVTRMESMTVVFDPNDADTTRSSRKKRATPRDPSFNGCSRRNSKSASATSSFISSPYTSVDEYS
# run-description: Antagonist activity at human recombinant NK3 receptor expressed in human U20S cells assessed as effect on NKB-induced intracellular calcium level by FLIPR assay
pKi: −log10 of the molar value.
readout-name: pKi

[
  {
    "compound": "Cc1cc(F)ccc1-c1cc(C2NC(=O)CC2CO)ncc1N(C)C(=O)C(C)(C)c1cc(C(F)(F)F)cc(C(F)(F)F)c1 (single isomer, unassigned; 9b)",
    "assayed-target": "Neuromedin-K receptor (Homo sapiens, UniProt P29371)",
    "numeric-readout": 7.50
  },
  {
    "compound": "Cc1cc(F)ccc1-c1cc(C2CNC(=O)C2CO)ncc1N(C)C(=O)C(C)(C)c1cc(C(F)(F)F)cc(C(F)(F)F)c1 (racemic)",
    "assayed-target": "Neuromedin-K receptor (Homo sapiens, UniProt P29371)",
    "numeric-readout": 8.10
  },
  {
    "compound": "Cc1cc(F)ccc1-c1cc(C2CC(=O)NC2CO)ncc1N(C)C(=O)C(C)(C)c1cc(C(F)(F)F)cc(C(F)(F)F)c1 (single isomer, unassigned; 22a)",
    "assayed-target": "Neuromedin-K receptor (Homo sapiens, UniProt P29371)",
    "numeric-readout": 8.70
  }
]
